assay_system: Epoxide hydrolase B (Mycobacterium tuberculosis) (UniProt P95276)
Sequence (whole entry): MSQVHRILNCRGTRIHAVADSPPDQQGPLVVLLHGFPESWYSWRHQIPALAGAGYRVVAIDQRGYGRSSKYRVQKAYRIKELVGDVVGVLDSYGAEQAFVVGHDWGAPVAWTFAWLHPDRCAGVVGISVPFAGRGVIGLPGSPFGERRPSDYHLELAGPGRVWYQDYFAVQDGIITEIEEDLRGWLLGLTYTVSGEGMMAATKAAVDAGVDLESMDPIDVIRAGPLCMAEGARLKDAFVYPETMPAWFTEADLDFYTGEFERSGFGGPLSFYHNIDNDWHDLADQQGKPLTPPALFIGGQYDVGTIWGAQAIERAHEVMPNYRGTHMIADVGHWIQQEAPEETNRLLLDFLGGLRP
test_details: Inhibition of Mycobacterium tuberculosis recombinant EphB expressed in Escherichia coli BL21 using CMNPC as substrate at 10 nM after 30 mins by fluorescent assay relative to control
Label condition met when inhibition is at or above 30%; otherwise label condition not met.

{"columns": ["molecule", "class_name"],
 "data": [
  ["CC(C)(C)NC(=O)NC1C2CC3CC(C2)CC1C3 (configuration not stated)", "condition not met"],
  ["N#Cc1ccc(NC(=O)NC2C3CC4CC(C3)CC2C4)cc1 (configuration not stated)", "condition not met"],
  ["CCOCCNC(=O)NC12CC3CC(CC(C3)C1)C2", "condition not met"],
  ["Fc1ccc(NC(=S)NC2C3CC4CC(C3)CC2C4)c(F)c1F (configuration not stated)", "condition not met"],
  ["Cc1c(Cl)cccc1NC(=O)NC1C2CC3CC(C2)CC1C3 (configuration not stated)", "condition not met"],
  ["CCCCCNC(=O)NC1C2CC3CC(C2)CC1C3 (configuration not stated)", "condition met"],
  ["O=C(NC1CCCCC1)NC1C2CC3CC(C2)CC1C3 (configuration not stated)", "condition not met"],
  ["COc1ccc(NC(=O)NC2C3CC4CC(C3)CC2C4)cc1 (configuration not stated)", "condition met"],
  ["CC1(C)C2CCC(CNC(=O)Nc3ccc(F)c(F)c3F)C1C2 (configuration not stated)", "condition met"],
  ["O=C(NCCc1ccccc1)NC1C2CC3CC(C2)CC1C3 (configuration not stated)", "condition met"],
  ["O=C(NCC12CC3CC(CC(C3)C1)C2)Nc1ccc(F)c(F)c1F", "condition met"],
  ["CCCOCCNC(=O)NC12CC3CC(CC(C3)C1)C2", "condition not met"]
]}

The origin of these recorded values is ChEMBL document CHEMBL1817626.
